- Test system: phospho-ERK in melanoma derived WM-266-4 cells
- Assay notes: Mechanistic cellular assay for Raf kinase activity (phospho-ERK, Bio-Plex)
- Format: cell-based
- Condition description: Homo sapiens, treated 1-2 hr at 37° C., serum free medium, read-out: pERK EC50
Reported EC50 values follow for various compounds

{"columns": ["Compound", "EC50"],
 "data": [
  ["COc1cc(C(F)(F)F)ccc1Nc1ncc(C(C)NC(=O)c2cc3c(cn2)ncn3C)s1 (stereo not drawn) [Example 244]", "≤ 100 nM"],
  ["CC(NC(=O)c1ccnc(N2CCOCC2)c1)c1ncc(C(=O)Nc2cc(C(F)(F)F)c(Cl)cn2)s1 (stereo not drawn) [Example 89]", "100 to 1000 nM"],
  ["C[C@H](NC(=O)c1cc2c(cn1)ncn2C)c1cnc(Nc2cnc(C(C)(C)C)nc2)s1 [Example 242]", "1000 to 10000 nM"]
]}

Indicate the recorded EC50 value for this compound: C[C@@H](NC(=O)c1cnc2cnccn12)c1ncc(C(=O)Nc2cc(C(F)(F)F)c(Cl)cn2)s1 [Example 312]
≤ 100 nM

Item CC(NC(=O)c1cccc(-n2ccnc2)c1)c1ncc(C(=O)Nc2cc(C(F)(F)F)c(Cl)cn2)s1 (stereo not drawn) [Example 48] : provide EC50
100 to 1000 nM

Give a short answer stating reported EC50 for CC(NC(=O)c1cc2c(cn1)ncn2C)c1ncc(C(=O)Nc2cc(C(C)(C)C)on2)s1 (stereo not drawn) [Example 43] .
≤ 100 nM

Note down EC50 recorded for C[C@@H](NC(=O)c1cnc2n1CCN2)c1ncc(C(=O)Nc2cc(C(F)(F)F)c(Cl)cn2)s1 [Example 169]
≤ 100 nM

Kindly indicate its recorded EC50. Item: C[C@@H](NC(=O)c1cnn(-c2ccccc2)c1N)c1ncc(C(=O)Nc2cc(C(F)(F)F)c(Cl)cn2)s1 [Example 121]
100 to 1000 nM

Please give the documented EC50 of CC(NC(=O)c1cc2c(cn1)ncn2C1CCCCC1)c1cnc(Nc2ccc(C(F)(F)F)cc2)s1 (stereo not drawn) [Example 18]
100 to 1000 nM

Write down EC50 measured for item CCCNc1ncc(C(=O)N[C@H](C)c2ncc(C(=O)Nc3cc(C(F)(F)F)c(Cl)cn3)s2)n1C [Example 153]
1000 to 10000 nM

Please indicate EC50 recorded for CC(NC(=O)c1cc2c(cn1)ncn2C(C)C)c1cnc(Nc2ccc(C(F)(F)F)cc2)s1 (stereo not drawn) [Example 12]
≤ 100 nM

###

- Tested on: phospho-ERK in melanoma derived WM-266-4 cells
- Assay notes: Mechanistic cellular assay for Raf kinase activity (phospho-ERK, Bio-Plex)
- Type: cell-based
- Condition description: Homo sapiens, treated 1-2 hr at 37° C., serum free medium, read-out: pERK EC50
Experimental readout: EC50

{"columns": ["Compound", "Study system", "Measured"],
 "data": [
  ["C[C@@H](NC(=O)c1cnn(-c2cccnc2)c1)c1ncc(C(=O)Nc2cc(C(F)(F)F)c(Cl)cn2)s1", "phospho-ERK in melanoma derived WM-266-4 cells", "100 to 1000 nM"]
]}

Find the measured EC50 of CC(NC(=O)c1cc2c(cn1)ncn2C)c1cnc(Nc2cccc(C(C)(C)C#N)c2)s1 (stereo not drawn) and report it.
100 to 1000 nM

Tell me measured EC50 for CCN1CC(n2cnc3cnc(C(=O)N[C@H](C)c4cnc(Nc5ccc(C(F)(F)F)cc5)s4)cc32)C1 please.
≤ 100 nM

Reference for the values: patent US20120040951A1
